Test system: NEK9
Condition Parameters: concentration: 1 μM, replicates: in singlicate; n = 1;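 also: KINOMEscan kinase panel screen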
Experimental Endpoint: %Inh
Report field: quantity (unit follows the number).

Value lookup for %Inh; key = "Cc1ccc(NC(=O)c2cccc(N3CCCCC3)c2)cc1-c1ccc(C(=O)NCC2CC2)cc1" 35%

Value lookup for %Inh; key = "O=C(Nc1n[nH]c2cc(-c3cccs3)ccc12)C1CC1" 0%

Value lookup for %Inh; key = "Cc1ccc(NC(=O)c2ccnc(N3CCCCC3)c2)cc1-c1ccc(C(=O)NCC2CC2)cc1" 20%

Value lookup for %Inh; key = "Cc1ccc(NC(=O)c2ccc(Cl)c(Cl)c2)cc1-c1ccc(C(=O)Nc2ccncc2)cc1" 7%

----------
Tested on: DMPK
Condition Parameters: concentration: 1 μM, replicates: in singlicate; n = 1
Experimental Endpoint: %Inh (%)
# value in %; strip the unit string

// map COc1cccc(C2=C(Nc3cccc(O)c3)C(=O)NC2=O)c1 [SB-390771] to recorded %Inh (system: DMPK) 0

// map COc1ccc(C)c(Nc2ccnc(Nc3ccc(-c4cnc[nH]4)cc3)n2)c1.Cl [GW784041] to recorded %Inh (system: DMPK) 0

// map O=C(Nc1n[nH]c2nc(-c3ccccc3O)ccc12)C1CC1 [SB-711880] to recorded %Inh (system: DMPK) 0

// map O=C(Nc1n[nH]c2nc(-c3ccccc3)ccc12)C1CC1 [SB-708999] to recorded %Inh (system: DMPK) 0

// map COc1ccc(C2=C(Nc3cccc(O)c3)C(=O)NC2=O)cc1 [SB-390766] to recorded %Inh (system: DMPK) 0

// map Cc1ccc(O)cc1Nc1ccnc2ccc(C(C)(C)C)cc12 [GW856805] to recorded %Inh (system: DMPK) 3

----------
Tested on: LOK
Construct: gene STK10
Condition Parameters: concentration: 1 μM, replicates: in singlicate; n = 1
Experimental Endpoint: %Inh
Report field: quantity (unit follows the number).

Value lookup for %Inh; key = CC(C)c1nc(-c2ccc(F)c(NS(=O)(=O)c3c(F)cccc3F)c2)c(-c2ccnc(Nc3ccc(N4CCOCC4)nc3)n2)s1 [GSK1804250] 99.3%

Value lookup for %Inh; key = Cc1cc(-c2c(-c3ccc(F)cc3)ncn2CCCN2CCOCC2)nc(N)n1 [SB-222517] 18%

Value lookup for %Inh; key = COC(=O)Nc1nc2cc(Oc3ccc(NC(=O)Nc4cccc(SC)c4)cc3)ccc2[nH]1.Cl [GW697999] 99.4%

Value lookup for %Inh; key = CC(C)NCC(Cc1ccccc1)NC(=O)c1cc(Br)c(-c2ccnc3[nH]ccc23)s1.Cl.Cl (stereo not shown) [GSK1383281] 0%

Value lookup for %Inh; key = COc1cc(Nc2nccc(N3CCC(NS(=O)(=O)c4ccc(NC(C)=O)cc4)CC3)n2)cc(OC)c1OC [GSK1379825] 2%

Value lookup for %Inh; key = Cn1cc(-c2cnc(N)c3c(-c4ccc5c(c4)CCN5C(=O)Cc4ccccc4)csc23)cn1 [GSK2593074] 98.9%

Value lookup for %Inh; key = COC(=O)Nc1nc2ccc(Oc3ccc(CC(=O)Nc4cc(C(F)(F)F)ccc4F)cc3)cc2[nH]1 [GW680903] 78%

Value lookup for %Inh; key = O=C1NC(=O)C(c2ccccc2Cl)=C1Nc1cccc(Cl)c1 [SB-342409] 5%

Value lookup for %Inh; key = CN(C)CCNS(=O)(=O)c1ccc(-c2ccnc3[nH]ccc23)cc1 [GSK977620] 0%

Value lookup for %Inh; key = Cc1ccc(NC(=O)c2cccc(N3CCCCC3)c2)cc1-c1ccc(C(=O)NCC2CC2)cc1 [GSK1917008] 32%

Value lookup for %Inh; key = CN(C)CCOc1ccc(-c2cc(-c3ccc(Cl)c(O)c3)c(-c3ccncc3)[nH]2)cc1.Cl.Cl [SB-684387] 84%

Value lookup for %Inh; key = Cn1cc(-c2ccc3c(c2)CCN3C(=O)Cc2cc(F)cc(C(F)(F)F)c2)c2c(N)ncnc21 [GSK2635225] 84%

Value lookup for %Inh; key = Fc1cc(Cl)ccc1Nc1ccnc2cc(-c3ccc(CN4CCOCC4)o3)ccc12 [GW560109] 62%

----------
System: NEK1
Condition Parameters: concentration: 1 μM, replicates: in singlicate; n = 1
Experimental Endpoint: %Inh (%)
# value in %; strip the unit string

Value lookup for %Inh; key = "Cn1cc(-c2ccc3c(c2)CCN3C(=O)Cc2cc(F)cc(F)c2F)c2c(N)ncnc21" 7

Value lookup for %Inh; key = "Cc1cc(-c2c(-c3ccc(F)cc3)ncn2CCCN2CCOCC2)nc(N)n1" 33

Value lookup for %Inh; key = "Cn1cc(-c2cnc(N)c3c(-c4ccc5c(c4)CCN5C(=O)Cc4ccccc4)csc23)cn1" 0

Value lookup for %Inh; key = "COc1cccc(C2=C(Nc3cccc(O)c3)C(=O)NC2=O)c1" 0

Value lookup for %Inh; key = "Cc1cccc(Nc2nc(N[C@H]3CCCC[C@H]3N)ncc2C(N)=O)c1.Cl" 2

Value lookup for %Inh; key = Cl.Cl.NC(CNC(=O)c1cc(Br)c(-c2ccnc3[nH]ccc23)s1)c1ccccc1 (stereo not shown) 54

Value lookup for %Inh; key = "COC(=O)Nc1nc2ccc(Oc3ccc(CC(=O)Nc4cc(C(F)(F)F)ccc4F)cc3)cc2[nH]1" 0

----------
System: ERN1
Condition Parameters: concentration: 1 μM, replicates: in singlicate; n = 1
Answer each item with its documented %Inh.
# value in %; strip the unit string

Value lookup for %Inh; key = "CN(C)CCOc1ccc(-c2cc(-c3ccc(Cl)c(O)c3)c(-c3ccncc3)[nH]2)cc1.Cl.Cl" 39

Value lookup for %Inh; key = "N#CC1(c2cccc(C(=O)Nc3cccc(Oc4ccc5nc(NC(=O)C6CC6)sc5n4)c3)c2)CC1" 0

Value lookup for %Inh; key = "CCn1c(-c2nonc2N)nc2c(-c3ccccc3)ncc(OCCCN)c21.O=C(O)C(F)(F)F.O=C(O)C(F)(F)F" 11

Value lookup for %Inh; key = Cc1ccc(-c2ccc3occ(-c4ccc(S(C)=O)cc4)c3c2)nn1 (stereo not drawn) 1

Value lookup for %Inh; key = "COc1ccc(C)c(Nc2ccnc(Nc3ccc(-c4cnc[nH]4)cc3)n2)c1.Cl" 0

Value lookup for %Inh; key = NCCC(NC(=O)c1cc(Br)c(-c2ccnc3[nH]ccc23)s1)c1ccccc1.O=C(O)C(F)(F)F.O=C(O)C(F)(F)F (stereo not drawn) 22

----------
Tested on: NDR1
Construct: gene STK38
Condition Parameters: concentration: 1 μM, replicates: in singlicate; n = 1
Threshold rule: %Inh greater than or equal to 20% is condition met; below that, condition not met.

In plain terms: is recorded %Inh at least 20% for "CC(C)c1nc(-c2cccc(NS(=O)(=O)c3c(F)cccc3F)c2)c(-c2ccnc(Nc3ccc(N4CCOCC4)nc3)n2)s1.Cl" ? condition met

In plain terms: is recorded %Inh at least 20% for "CC(=O)Nc1cn2nc(Oc3cccc(NC(=O)c4cccc(C(F)(F)F)c4)c3)ccc2n1" ? condition not met

In plain terms: is recorded %Inh at least 20% for "Nc1ncnc2scc(-c3ccc(NC(=O)Cc4cc(F)ccc4F)cc3)c12.O=C(O)C(F)(F)F" ? condition not met

In plain terms: is recorded %Inh at least 20% for "COc1ccc(C)c(Nc2ccnc(Nc3ccc(-c4cnc[nH]4)cc3)n2)c1.Cl" ? condition met

In plain terms: is recorded %Inh at least 20% for "Cn1cc(-c2cnc(N)c3c(-c4ccc5c(c4)CCN5C(=O)Cc4ccccc4)csc23)cn1" ? condition not met

In plain terms: is recorded %Inh at least 20% for "O=C(Nc1n[nH]c2nc(-c3cccc(O)c3)ccc12)C1CC1" ? condition not met

In plain terms: is recorded %Inh at least 20% for "Cl.N#CCc1ccc(Nc2nccc(Nc3ccc(Oc4ccccc4)cc3)n2)cc1" ? condition not met

In plain terms: is recorded %Inh at least 20% for "O=C(O)C(F)(F)F.O=c1[nH]ccc2nc(N[C@@H]3CCNC3)nc(Nc3cc(Cl)cc(Cl)c3)c12" ? condition met

In plain terms: is recorded %Inh at least 20% for "CN(C)c1ncnc2nc[nH]c12" ? condition met

In plain terms: is recorded %Inh at least 20% for NCCC(NC(=O)c1cc(Br)c(-c2ccnc3[nH]ccc23)s1)c1ccccc1.O=C(O)C(F)(F)F.O=C(O)C(F)(F)F (stereo not shown) ? condition met

In plain terms: is recorded %Inh at least 20% for "Cn1cc(-c2ccc3c(c2)CCN3C(=O)Cc2cc(F)cc(C(F)(F)F)c2)c2c(N)ncnc21" ? condition met

In plain terms: is recorded %Inh at least 20% for "CC(C)(C)c1ccc(C(=O)Nc2cn3cc(-n4ccnc4)ccc3n2)cc1" ? condition not met

In plain terms: is recorded %Inh at least 20% for "COc1cccc(-c2nc(-c3ccccc3)[nH]c2-c2ccncc2)c1" ? condition not met

In plain terms: is recorded %Inh at least 20% for "Fc1cc(Cl)ccc1Nc1ccnc2cc(-c3ccc(CN4CCOCC4)o3)ccc12" ? condition not met

In plain terms: is recorded %Inh at least 20% for "CCOc1nccc(-c2c(-c3ccc(F)cc3)ncn2C2CCNCC2)n1" ? condition not met

In plain terms: is recorded %Inh at least 20% for "CCNC(=O)/C=C/c1n[nH]c2cc(Sc3ccccc3C(=O)NC)ccc12" ? condition met

In plain terms: is recorded %Inh at least 20% for "CN(C)CCOc1ccc(-c2cc(-c3ccc(Cl)c(O)c3)c(-c3ccncc3)[nH]2)cc1.Cl.Cl" ? condition met

In plain terms: is recorded %Inh at least 20% for "O=C(Nc1c(F)cccc1F)c1cc(C(=O)c2ccccc2F)c[nH]1" ? condition not met

In plain terms: is recorded %Inh at least 20% for "COc1cccc(CC(=O)N2CCc3cc(-c4cn(C)c5ncnc(N)c45)ccc32)c1" ? condition met
